Assayed Target: STAT5b Phe633Ala, Tyr665Ala (Homo sapiens, UniProt P51692, F633A/Y665A)
Sequence (P51692 1-787 F633A/Y665A): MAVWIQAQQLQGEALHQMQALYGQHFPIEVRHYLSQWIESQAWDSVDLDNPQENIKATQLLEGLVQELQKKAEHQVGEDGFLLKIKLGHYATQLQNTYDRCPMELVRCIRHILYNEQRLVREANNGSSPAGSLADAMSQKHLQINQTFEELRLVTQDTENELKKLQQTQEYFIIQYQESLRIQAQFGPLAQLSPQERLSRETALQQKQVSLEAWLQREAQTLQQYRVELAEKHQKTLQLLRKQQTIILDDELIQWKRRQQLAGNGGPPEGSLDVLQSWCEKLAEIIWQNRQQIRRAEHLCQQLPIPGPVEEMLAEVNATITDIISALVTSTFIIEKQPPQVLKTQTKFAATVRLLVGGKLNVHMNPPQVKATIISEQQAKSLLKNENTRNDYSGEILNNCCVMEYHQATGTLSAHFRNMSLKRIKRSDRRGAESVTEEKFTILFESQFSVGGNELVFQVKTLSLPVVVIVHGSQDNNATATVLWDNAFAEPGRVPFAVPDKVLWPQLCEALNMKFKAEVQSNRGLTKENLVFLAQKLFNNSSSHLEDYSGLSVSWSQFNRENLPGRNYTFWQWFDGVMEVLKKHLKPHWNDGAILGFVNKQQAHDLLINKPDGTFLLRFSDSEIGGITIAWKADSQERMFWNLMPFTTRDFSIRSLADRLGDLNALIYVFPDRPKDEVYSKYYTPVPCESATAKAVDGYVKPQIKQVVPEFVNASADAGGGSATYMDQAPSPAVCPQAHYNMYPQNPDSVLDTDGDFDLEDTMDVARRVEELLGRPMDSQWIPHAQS
Protocol Details: Isothermal titration calorimetry, STAT5b Phe633Ala, Tyr665Ala double mutant
Condition Details: ITC, 25 °C, n = 3

# Smiles Str, Result Units, Kd
measured = [
    ("O=C(COc1ccc(C(=O)Nc2ccc(Oc3ccccc3)cc2)cc1)NCc1ccc(OP(=O)(O)O)c(OP(=O)(O)O)c1", "µM", 3.8),
]

----------
Assayed Target: STAT5b SH2 domain (Homo sapiens)
Sequence (P51692 1-787): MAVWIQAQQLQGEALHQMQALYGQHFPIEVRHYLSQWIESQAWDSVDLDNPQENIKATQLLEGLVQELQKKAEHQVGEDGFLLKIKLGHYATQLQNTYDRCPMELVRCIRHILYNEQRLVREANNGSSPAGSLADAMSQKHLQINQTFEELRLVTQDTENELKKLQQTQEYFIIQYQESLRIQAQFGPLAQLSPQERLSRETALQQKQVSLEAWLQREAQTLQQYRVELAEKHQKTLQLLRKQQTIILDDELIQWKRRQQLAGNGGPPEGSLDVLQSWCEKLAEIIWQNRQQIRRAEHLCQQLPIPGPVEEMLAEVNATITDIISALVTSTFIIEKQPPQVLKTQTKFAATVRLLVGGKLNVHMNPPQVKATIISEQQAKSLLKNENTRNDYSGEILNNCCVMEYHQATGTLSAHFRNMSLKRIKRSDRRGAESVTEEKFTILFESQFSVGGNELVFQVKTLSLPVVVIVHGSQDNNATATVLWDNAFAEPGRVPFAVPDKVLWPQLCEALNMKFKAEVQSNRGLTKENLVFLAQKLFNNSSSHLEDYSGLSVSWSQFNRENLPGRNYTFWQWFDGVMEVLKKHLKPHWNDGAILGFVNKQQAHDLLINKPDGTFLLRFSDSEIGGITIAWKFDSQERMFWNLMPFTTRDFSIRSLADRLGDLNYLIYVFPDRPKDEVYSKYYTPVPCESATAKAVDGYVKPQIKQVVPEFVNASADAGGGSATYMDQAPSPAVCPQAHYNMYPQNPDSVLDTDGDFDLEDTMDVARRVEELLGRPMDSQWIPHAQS
Catalogue of IC50 readings, one per entry.

# Smiles Str, Assayed Target, IC50
rows = [
    ("O=C(COc1ccc(C(=O)Nc2ccccc2)cc1)NCc1ccc(OP(=O)(O)O)c(OP(=O)(O)O)c1", "STAT5b SH2 domain (Homo sapiens)", "280 nM"),
    ("O=C(COc1ccc(C(=O)Nc2ccc(Oc3ccccc3)cc2)cc1)NCc1ccc(OP(=O)(O)O)c(OP(=O)(O)O)c1", "STAT5b SH2 domain (Homo sapiens)", "82 nM"),
]

Provenance of the data: paper PMC5429769
